- protocol: in vivo
- assaySetup: male, Wistar, rat, plasma, sc, 45 mg/kg; SD
measuredParameter: cmax (ng/mL)
Answers are plain numbers, in ng/mL.

stdin: Data request, read-out cmax, for "CCCCCCCCCC(=O)N[C@@H](Cc1c[nH]c2ccccc12)C(=O)N[C@H](CC(N)=O)C(=O)N[C@@H](CC(=O)O)C(=O)N[C@@H]1C(=O)NCC(=O)N[C@@H](CCCN)C(=O)N[C@@H](CC(=O)O)C(=O)N[C@H](C)C(=O)N[C@@H](CC(=O)O)C(=O)NCC(=O)N[C@H](CO)C(=O)N[C@@H]([C@H](C)CC(=O)O)C(=O)N[C@@H](CC(=O)c2ccccc2N)C(=O)O[C@@H]1C"
stdout: 123000

* * *

- protocol: in vivo
- assaySetup: male, Wistar, rat, plasma, sc, 90 mg/kg; SD
measuredParameter: Tmax

stdin: Look at this compound and give its reported Tmax. "CCCCCCCCCC(=O)N[C@@H](Cc1c[nH]c2ccccc12)C(=O)N[C@H](CC(N)=O)C(=O)N[C@@H](CC(=O)O)C(=O)N[C@@H]1C(=O)NCC(=O)N[C@@H](CCCN)C(=O)N[C@@H](CC(=O)O)C(=O)N[C@H](C)C(=O)N[C@@H](CC(=O)O)C(=O)NCC(=O)N[C@H](CO)C(=O)N[C@@H]([C@H](C)CC(=O)O)C(=O)N[C@@H](CC(=O)c2ccccc2N)C(=O)O[C@@H]1C"
stdout: 3.3 h

FYI, the data here is from paper PMC9603373.
